# test-details: growth inhibition of DIPG cells – cell-based, MIPE5.0 library, qHTS (AID 1347068);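 for IC50: cells exposed to compound for 48 hours before viability readout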
# condition-label: SU-DIPG-XXV viability
Results filed as inconclusive are left out. Calls of active or inactive are those of the source. No cut-off is given here; in the data, nearly all actives have IC50 up to about 30 µM.
The reply should be one of these categories: active, inactive

| molecule | assigned-label |
| --- | --- |
| CC1(COc2ccc3c(c2)ncn3-c2ccc3cccc(N4CCC(N)CC4)c3n2)COC1 | active |
| N#CC1(c2ccc(NC(=O)c3cccnc3NCc3ccncc3)cc2)CCCC1 | inactive |
| COc1ccc2c(c1)CC[C@@H](CN(C)CC(=O)O)[C@H]2c1ccccc1 | inactive |
| O=[N+]([O-])c1ccc(-c2nc(-c3ccc(F)cc3)c(-c3ccncc3)[nH]2)cc1 | inactive |
| COc1cc2c(cc1OC(C)C)[C@H](c1ccc(Cl)cc1)N(c1ccc(N(C)CC3CCC(N4CCN(C)C(=O)C4)CC3)cc1)C(=O)C2 (some centres undefined) | active |
| CCCCCN(CCC12CC3CC(CC(C3)C1)C2)C(=O)NCCCc1ccncc1 | inactive |
| CC(C)(C)c1cc(C(C)(C)C)c(NC(=O)c2c[nH]c3ccccc3c2=O)cc1O | active |
| COc1ccnc2[nH]cc(C(=O)C(=O)N3CCN(C(=O)c4ccccc4)C[C@H]3C)c12 | inactive |

Consider the record given below.
Query: Identify the outcome logged in this assay for the molecule shown: NC(=O)/C(=C/n1cnc(-c2cc(C(F)(F)F)cc(C(F)(F)F)c2)n1)c1cncnc1
Response: active
